# experimental_system: Neu5Ac(a2-3)Gal
# assay_method_text: glycan array binding signal (z-score within array); higher = stronger binding
# run_conditions: glycan notation: IUPAC condensed, linker removed
The full list was thinned out, with the strongest signals kept by preference.
endpoint_label: glycan array binding signal (z-score)

[
  {
    "binder": "HHA (Hippeastrum hybrid) (protein) MQQDCNLVLYDVDKPIWASNTGGLARDCHLNMQSDGNLVVYAPRNQVIWASNTQGENGNYVCILQKDRNVVIYGTARWATGTNIHGAGIVGVPGSAPQNTTAEMIKLVRKYLITK",
    "glycan array binding signal (z-score)": -0.214
  }
]

Switching to the query record.
Problem: Return glycan array binding signal (z-score) for the following binder: CTLX (Homo sapiens), Q6UXS0 (protein) SLCPLFWMEFKGHCYRFFPLNKTWAEADLYCSEFSVGRKSAKLASIHSWEENVFVYDLVNSCVPGIPADVWTGLHDHRQEGQFEWTDGSSYDYSYWDGSQPDDGVHADPEEEDCVQIWYRPTSALRSWNDNTCSRKFPFVCKIPSLTIH
Result: -0.528
